- assay.info: Thermal stability assessment by nanoDSC
- Assay type: physicochemical
- recorded.conditions: 1 mg/mL in PBS, scan 25-100° C. at 1° C./min, major transition
Please respond with reported TM for every item in the list.
Write the number in °C without appending the unit.

Note to self: TM recorded for SEQ ID NO: 14: optimized CTGF-binding hNGAL lipocalin mutein (protein, lipocalin mutein) QDSTSDLIPAPPLSKVPLQQNFQDNQFQGKWYVVGLAGNAILREDKYPAKMFATIYELKEDKSYDVTSVRFEAKSCIYTIKTFVPGSQPGEFTRGNIKSAPGQTSTLVRVVSTNYNQHAMVFFKHVSQNREIFVITLYGRTKELTSELKENFIRFSKSLGLPENHIVFPVPIDQCIDG was 68

Note to self: TM recorded for SEQ ID NO: 27: optimized CTGF-binding hNGAL lipocalin mutein (protein, lipocalin mutein) QDSTSDLIPAPPLSKVPLQQNFQDNQFQGKWYVVGLAGNYRLREDKDPSKMGATIYELKEDKSYDVTQVQFDDKKCLYVIETFVPGSQPGEFTLGAIKSYPGLTSQLVRVVSTNYNQHAMVFLKKVYGSEEYFHITLYGRTKELTSELKENFIRFSKSLGLPENHIVFPVPIDQCIDG was 64

Note to self: TM recorded for SEQ ID NO: 7: parent CTGF-binding hNGAL lipocalin mutein (protein, lipocalin mutein) QDSTSDLIPAPPLSKVPLQQNFQDNQFHGKWYVVGLAGNYGLRTDKRPSKMFATIYELKEDKSYDVTSVRFEQERCHYTIRTFVPGSQPGEFTTGSIKSRPGQTSSLVRVVSTNYNQHAMVFFKSVIQNREYFAITLYGRTKELTSELKENFIRFSKSLGLPENHIVFPVPIDQCIDG was 65

Note to self: TM recorded for SEQ ID NO: 20: optimized CTGF-binding hNGAL lipocalin mutein (protein, lipocalin mutein) QDSTSDLIPAPPLSKVPLQQNFQDNQFQGKWYVVGLAGNAILREDKQPAKMFATIYELKEDKSYDVTSVRFEAKSCSYTIKTFVPGSQPGEFTAGNIKSAPGQTSTLVRVVSTNYNQHAMVFAKAVQLNREHFFITLYGRTKELTSELKENFIRFSKSLGLPENHIVFPVPIDQCIDG was 61

Note to self: TM recorded for SEQ ID NO: 17: optimized CTGF-binding hNGAL lipocalin mutein (protein, lipocalin mutein) QDSTSDLIPAPPLSKVPLQQNFQDNQFQGKWYVVGLAGNAILRTDKQPAKMFATIYELKEDKSYDVTSVRFEAKSCVYTSKTFVPGSQPGEFTAGNIKSAPGQTSTLVRVVSTNYNQHAMVFFKHVSQNREFFVITLYGRTKELTSELKENFIRFSKSLGLPENHIVFPVPIDQCIDG was 74
